Would you mind telling me the reported EC50 of each entry?
# system: CCR2 (Homo sapiens, UniProt P41597)
# Construct: expressed in transfected cells; host or cells: CHOK1
# Sequence (P41597 whole entry, species assumed): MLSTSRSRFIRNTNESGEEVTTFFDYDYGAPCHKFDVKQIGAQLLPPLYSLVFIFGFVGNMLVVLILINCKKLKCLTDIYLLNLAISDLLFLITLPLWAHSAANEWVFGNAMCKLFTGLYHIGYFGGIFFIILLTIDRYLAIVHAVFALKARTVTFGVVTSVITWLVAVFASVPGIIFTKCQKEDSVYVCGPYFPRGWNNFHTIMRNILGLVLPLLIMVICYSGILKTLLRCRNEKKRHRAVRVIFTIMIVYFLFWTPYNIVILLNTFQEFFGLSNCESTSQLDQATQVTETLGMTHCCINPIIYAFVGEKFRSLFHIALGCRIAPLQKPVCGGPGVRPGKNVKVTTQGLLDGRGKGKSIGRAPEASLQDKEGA
# experiment summary: Antibody Dependent Cellular Cytotoxicity (ADCC) reporter assay, CCR2 target cells
# Format: cell-based
# stated conditions: CHOK1 cells overexpressing CCR2; Jurkat FcgRIIIa NFAT-luciferase reporter cells; EC50 class; read-out: ADCC potency

// below: answered compounds
compound | EC50
CC(C)(C)N1CCNC(C(=O)N2CCN(C(=O)Nc3nc(C(F)(F)F)c(Cl)s3)C(CCOC(=O)NCCOCCOCCOCCOCCOCCOCCOCCOCCOCCNc3ccc([N+](=O)[O-])cc3[N+](=O)[O-])C2)C1 (mixture of isomers) [Compound 18] | < 1 nM
CC(C)[C@]1(C(=O)N2CCc3nc(CCCCOc4ccc(C(=O)NCCOCCOCCOCCOCCOCCOCCOCCOCCOCCNc5ccc([N+](=O)[O-])cc5[N+](=O)[O-])cc4)c(C(F)(F)F)cc3C2)CC[C@@H](NC2CCOCC2)C1 [Compound 6] | < 1 nM
Cc1ccc2c(c1)NC[C@]21CCN(C[C@@H](O)C2CCN(C(=O)/C=C/c3cc(F)cc(OCCOCCOCCOCCOCCOCCOCCOCCOCCOCCNc4ccc([N+](=O)[O-])cc4[N+](=O)[O-])c3)CC2)C[C@H]1C [Compound 9] | < 1 nM

Each compound below has a reported value. Please supply its EC50.
1. CC(C)[C@]1(C(=O)N2CCc3nc(CCCCOc4cccc(C(=O)NCCOCCOCCOCCOCCOCCOCCOCCOCCOCCNc5ccc([N+](=O)[O-])cc5[N+](=O)[O-])c4)c(C(F)(F)F)cc3C2)CC[C@@H](NC2CCOCC2)C1 [Compound 7]
2. Cc1ccc2c(c1)NC[C@]21CCN(C[C@@H](O)C2CCN(C(=O)c3cc4cc(OCCOCCOCCOCCNC(=O)CCC(=O)NCCOCCOCCOCCNc5ccc([N+](=O)[O-])cc5[N+](=O)[O-])ccc4[nH]3)CC2)C[C@H]1C [Compound 8]
3. CC(C)(C)N1CCNC(C(=O)N2CCN(C(=O)Nc3ccc(Cl)c(F)c3)C(CCOC(=O)NCCOCCOCCOCCOCCOCCOCCOCCOCCOCCNc3ccc([N+](=O)[O-])cc3[N+](=O)[O-])C2)C1 (single isomer, unassigned) [Compound 19]

Result:
1: < 1 nM; 2: 10 to 100 nM; 3: < 1 nM
